# Test system: Streptococcus pyogenes NCTC 8306
# protocol.summary: Peptidase activity detection on Columbia agar containing substrate
# Type: cell-based
# Set-up: key: − = no fluorescence detected; e = trace of fluorescence; +/− = weak fluorescence; + = medium fluorescence; ++ = strong fluorescence; NG = No Growth
# assay.setup: substrate 100 mg/l, 24 hours at 37° C., UV 360-365 nm
reported.metric: fluorescence intensity

// solved cases for fluorescence intensity follow
compound	fluorescence intensity
C[C@H](N)C(=O)Nc1ccccc1-c1nc2ccccc2s1 [Substrate 17]	NG
C[C@H](N)C(=O)Nc1ccc(Cl)cc1-c1nc2ccccc2s1 [Substrate 19]	NG
C[C@H](N)C(=O)Nc1cc2c(cc1-c1nc3ccccc3n1CCc1ccccc1)OCO2 [Substrate 16]	−
C[C@H](N)C(=O)Nc1ccccc1-c1nc2ccccc2o1 [Substrate 1]	−
NCC(=O)Nc1ccccc1-c1nc2ccccc2o1 [Substrate 3]	NG
NCCC(=O)Nc1ccccc1-c1nc2ccccc2s1 [Substrate 18]	NG

Request: // fluorescence intensity lookup, key: NCCC(=O)Nc1ccccc1-c1nc2ccccc2o1 [Substrate 2]
Result: NG

Request: // fluorescence intensity lookup, key: C[C@H](N)C(=O)Nc1ccccc1-c1nc2cc(Cl)ccc2o1 [Substrate 4]
Result: −

Request: // fluorescence intensity lookup, key: C[C@H](N)C(=O)Nc1ccccc1-c1nc2ccccc2n1CCc1ccccc1 [Substrate 14]
Result: −

Request: // fluorescence intensity lookup, key: COc1cc(NC(=O)CCN)c(-c2nc3ccccc3o2)cc1OC [Substrate 11]
Result: −

The measurements presented in this section are drawn from patent US8216800B2.
